For each of the compounds below, state its Stability Long-Term RE (%).
# Protocol details: Stability of the analytes in spiked plasma, brain, kidney and spleen matrices (autosampler, long-term, freeze-thaw)
# Assay type: physicochemical, mice
# Test context: plasma, nominal 30.0 µg/mL, −70 °C for 30 days
Answers are plain numbers, in %.

[[record]]
input_smiles = "COc1ccc2ccc(=O)oc2c1"
measured_number = 3.55

[[record]]
input_smiles = "COc1cc2ccc(=O)oc2cc1OCC=C(C)C"
measured_number = -5.20

[[record]]
input_smiles = "COc1cc2ccc(=O)oc2c(OC)c1OC"
measured_number = -3.40

[[record]]
input_smiles = "CC(C)=CCOc1ccc2ccc(=O)oc2c1"
measured_number = -4.81


Input line: Specify Stability Long-Term RE (%) for `COc1cc2ccc(=O)oc2cc1OC` and stop.
Output line: -8.41

---

For each of the compounds below, state its Stability Freeze-Thaw RE (%).
# Protocol details: Stability of the analytes in spiked plasma, brain, kidney and spleen matrices (autosampler, long-term, freeze-thaw)
# Assay type: physicochemical, mice
# Test context: spleen, nominal 30.0 µg/mL, three cycles (−4 °C to 25 °C)
Answer with the figure and its unit, nothing else.

The examples below pair each entry with its known result.
[[record]]
input_smiles = "COc1ccc2ccc(=O)oc2c1"
result = "0.49%"

[[record]]
input_smiles = "CC(C)=CCOc1ccc2ccc(=O)oc2c1"
result = "2.27%"

[[record]]
input_smiles = "COc1cc2ccc(=O)oc2cc1OC"
result = "-4.22%"

[[record]]
input_smiles = "COc1cc2ccc(=O)oc2c(OC)c1OC"
result = "-1.06%"


Please turn your attention to the following entry.
Input line: Specify Stability Freeze-Thaw RE (%) for `COc1cc2ccc(=O)oc2cc1OCC=C(C)C` and stop.
Output line: 2.38%

---

For each of the compounds below, state its Stability Long-Term RE (%).
# Protocol details: Stability of the analytes in spiked plasma, brain, kidney and spleen matrices (autosampler, long-term, freeze-thaw)
# Assay type: physicochemical, mice
# Test context: spleen, nominal 30.0 µg/mL, −70 °C for 30 days
Answer with the figure and its unit, nothing else.

The examples below pair each entry with its known result.
[[record]]
input_smiles = "COc1cc2ccc(=O)oc2cc1OCC=C(C)C"
result = "2.78%"

[[record]]
input_smiles = "CC(C)=CCOc1ccc2ccc(=O)oc2c1"
result = "4.26%"

[[record]]
input_smiles = "COc1cc2ccc(=O)oc2cc1OC"
result = "-2.12%"

[[record]]
input_smiles = "COc1cc2ccc(=O)oc2c(OC)c1OC"
result = "7.60%"


Input line: Specify Stability Long-Term RE (%) for `COc1ccc2ccc(=O)oc2c1` and stop.
Output line: 2.92%

---

For each of the compounds below, state its Stability Autosampler RE (%).
# Protocol details: Stability of the analytes in spiked plasma, brain, kidney and spleen matrices (autosampler, long-term, freeze-thaw)
# Assay type: physicochemical, mice
# Test context: kidney, nominal 30.0 µg/mL, processed samples in autosampler vials 24 h room temperature
# Experimental: The stability of the compounds obtained from each enriched matrices at the QC concentrations was evaluated under different conditions that covered the processing, handling, and storage phases that could be developed throughout the study. […] The stability of the analytes in plasma, brain, kidneys, and spleen was evaluated by the analyzed concentrations of QC subjected to three different conditions. […] Freeze-thaw stability was determined after three cycles (−4 °C to 25 °C) on three consecutive days.
Answers are plain numbers, in %.

The examples below pair each entry with its known result.
[[record]]
compound = "COc1cc2ccc(=O)oc2cc1OC [SC, scoparone]"
unit_abbrev = "%"
measured_number = -0.35

[[record]]
compound = "CC(C)=CCOc1ccc2ccc(=O)oc2c1 [PU, 7-O-prenylumbelliferone]"
unit_abbrev = "%"
measured_number = 1.66

[[record]]
compound = "COc1cc2ccc(=O)oc2c(OC)c1OC [DF, dimethylfraxetin]"
unit_abbrev = "%"
measured_number = 0.66

[[record]]
compound = "COc1ccc2ccc(=O)oc2c1 [HR, herniarin]"
unit_abbrev = "%"
measured_number = 1.35


Input line: Specify Stability Autosampler RE (%) for COc1cc2ccc(=O)oc2cc1OCC=C(C)C [PE, 7-O-prenylscopoletin] and stop.
Output line: 1.61

---

For each of the compounds below, state its Cl/F.
# Protocol details: Pharmacokinetic study in plasma after oral hexanic extract of Tagetes lucida, healthy and LPS-damaged mice
# Assay type: in vivo, ICR mice
# Test context: plasma, LPS-damaged ICR mice, 10 mg/kg oral hexanic extract, mean ± SEM (n = 5)

[[record]]
compound = "CC(C)=CCOc1ccc2ccc(=O)oc2c1 [PU, 7-O-prenylumbelliferone]"
measured_endpoint = "Cl/F"
result = "46.95 ± 5.03 (mg/kg)/(μg/mL)/h"

[[record]]
compound = "COc1cc2ccc(=O)oc2cc1OCC=C(C)C [PE, 7-O-prenylscopoletin]"
measured_endpoint = "Cl/F"
result = "17.38 ± 2.25 (mg/kg)/(μg/mL)/h"

[[record]]
compound = "COc1cc2ccc(=O)oc2c(OC)c1OC [DF, dimethylfraxetin]"
measured_endpoint = "Cl/F"
result = "28.81 ± 2.51 (mg/kg)/(μg/mL)/h"

[[record]]
compound = "COc1ccc2ccc(=O)oc2c1 [HR, herniarin]"
measured_endpoint = "Cl/F"
result = "32.50 ± 2.91 (mg/kg)/(μg/mL)/h"


Please turn your attention to the following entry.
Input line: Specify Cl/F for COc1cc2ccc(=O)oc2cc1OC [SC, scoparone] and stop.
Output line: 36.52 ± 2.68 (mg/kg)/(μg/mL)/h

---

# Protocol details: Stability of the analytes in spiked plasma, brain, kidney and spleen matrices (autosampler, long-term, freeze-thaw)
# Assay type: physicochemical, mice
# Test context: brain, nominal 30.0 µg/mL, three cycles (−4 °C to 25 °C)
Measured endpoint: Stability Freeze-Thaw RE (%)
Give bare numbers, in %.

The examples below pair each entry with its known result.
[[record]]
molecule = "COc1cc2ccc(=O)oc2c(OC)c1OC [DF, dimethylfraxetin]"
measured_number = -0.35

[[record]]
molecule = "COc1cc2ccc(=O)oc2cc1OCC=C(C)C [PE, 7-O-prenylscopoletin]"
measured_number = -1.25

[[record]]
molecule = "COc1cc2ccc(=O)oc2cc1OC [SC, scoparone]"
measured_number = -2.00


# batch: return Stability Freeze-Thaw RE (%) for each of the 2 molecules below
1. CC(C)=CCOc1ccc2ccc(=O)oc2c1 [PU, 7-O-prenylumbelliferone]
2. COc1ccc2ccc(=O)oc2c1 [HR, herniarin]

Output line:
[-1.74, -1.02]

---

# Protocol details: Stability of the analytes in spiked plasma, brain, kidney and spleen matrices (autosampler, long-term, freeze-thaw)
# Assay type: physicochemical, mice
# Test context: brain, nominal 0.3 µg/mL, three cycles (−4 °C to 25 °C)
Measured endpoint: Stability Freeze-Thaw RE (%)
One number for each entry, in %.

[[record]]
input_smiles = "CC(C)=CCOc1ccc2ccc(=O)oc2c1"
measured_endpoint = "Stability Freeze-Thaw RE (%)"
unit_abbrev = "%"
measured_number = -6.54

[[record]]
input_smiles = "COc1cc2ccc(=O)oc2c(OC)c1OC"
measured_endpoint = "Stability Freeze-Thaw RE (%)"
unit_abbrev = "%"
measured_number = 0.03

[[record]]
input_smiles = "COc1ccc2ccc(=O)oc2c1"
measured_endpoint = "Stability Freeze-Thaw RE (%)"
unit_abbrev = "%"
measured_number = -0.69

[[record]]
input_smiles = "COc1cc2ccc(=O)oc2cc1OCC=C(C)C"
measured_endpoint = "Stability Freeze-Thaw RE (%)"
unit_abbrev = "%"
measured_number = -1.15


Input line: Specify Stability Freeze-Thaw RE (%) for `COc1cc2ccc(=O)oc2cc1OC` and stop.
Output line: -1.98

---

For each of the compounds below, state its Stability Long-Term RE (%).
# Protocol details: Stability of the analytes in spiked plasma, brain, kidney and spleen matrices (autosampler, long-term, freeze-thaw)
# Format: physicochemical, mice
# Test context: brain, nominal 30.0 µg/mL, −70 °C for 30 days
Numbers only, in %.

[[record]]
input_smiles = "COc1cc2ccc(=O)oc2cc1OCC=C(C)C"
measured_number = -3.82


# batch: return Stability Long-Term RE (%) for each of the 4 compounds below
1. CC(C)=CCOc1ccc2ccc(=O)oc2c1
2. COc1ccc2ccc(=O)oc2c1
3. COc1cc2ccc(=O)oc2c(OC)c1OC
4. COc1cc2ccc(=O)oc2cc1OC

Output line:
1. -4.61
2. -4.72
3. -4.35
4. -4.75

---

# Protocol details: Stability of the analytes in spiked plasma, brain, kidney and spleen matrices (autosampler, long-term, freeze-thaw)
# Assay type: physicochemical, mice
# Test context: brain, nominal 0.3 µg/mL, processed samples in autosampler vials 24 h room temperature
Measured endpoint: Stability Autosampler RE (%)
Numbers only, in %.

[[record]]
input_smiles = "COc1cc2ccc(=O)oc2cc1OCC=C(C)C"
measured_endpoint = "Stability Autosampler RE (%)"
measured_number = -2.37


# batch: return Stability Autosampler RE (%) for each of the 2 compounds below
1. COc1ccc2ccc(=O)oc2c1
2. COc1cc2ccc(=O)oc2c(OC)c1OC

Output line:
1. -3.47
2. -4.07

# batch: return Stability Autosampler RE (%) for each of the 2 compounds below
1. COc1cc2ccc(=O)oc2cc1OC
2. CC(C)=CCOc1ccc2ccc(=O)oc2c1

Output line:
-2.15
2.13
